Tested System: human P2X2/3 receptors (Homo sapiens, UniProt P56373+Q9UBL9)
Construct: expressed in transfected cells; host or cells: human astrocytoma 1321N1 (1312N1 [sic])
Sequence (P56373 whole entry): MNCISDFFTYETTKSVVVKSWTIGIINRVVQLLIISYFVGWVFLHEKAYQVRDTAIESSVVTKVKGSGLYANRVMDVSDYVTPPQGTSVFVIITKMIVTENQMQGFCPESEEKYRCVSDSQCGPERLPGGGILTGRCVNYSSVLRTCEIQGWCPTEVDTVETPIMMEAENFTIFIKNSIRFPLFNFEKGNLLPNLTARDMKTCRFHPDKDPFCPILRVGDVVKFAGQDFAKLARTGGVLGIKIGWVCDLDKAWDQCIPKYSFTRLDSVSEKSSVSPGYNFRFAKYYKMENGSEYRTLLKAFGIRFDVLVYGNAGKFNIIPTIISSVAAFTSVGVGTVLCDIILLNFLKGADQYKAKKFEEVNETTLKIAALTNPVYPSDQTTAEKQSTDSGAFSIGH
Sequence (Q9UBL9 whole entry): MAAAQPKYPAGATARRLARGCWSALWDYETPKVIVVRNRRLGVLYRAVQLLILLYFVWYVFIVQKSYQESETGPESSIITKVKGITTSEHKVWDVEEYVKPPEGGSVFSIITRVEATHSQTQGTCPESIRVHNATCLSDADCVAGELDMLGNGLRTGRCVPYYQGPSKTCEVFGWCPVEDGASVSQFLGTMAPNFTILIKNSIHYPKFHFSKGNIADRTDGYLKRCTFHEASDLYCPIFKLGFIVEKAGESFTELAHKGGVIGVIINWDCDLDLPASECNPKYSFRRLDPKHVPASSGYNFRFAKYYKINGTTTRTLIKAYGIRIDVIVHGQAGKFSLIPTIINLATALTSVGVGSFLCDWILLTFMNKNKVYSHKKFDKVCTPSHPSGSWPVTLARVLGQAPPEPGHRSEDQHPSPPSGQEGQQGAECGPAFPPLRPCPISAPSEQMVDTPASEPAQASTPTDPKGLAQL
Experimental Details: Intracellular calcium measurement, antagonist activity at human P2X2/3 receptors (hP2X23 1321N1), Fluo8
Type: cell-based
Setup Conditions: column 4); 1321N1 cells, human P2X2/3, Fluo8, agonist ATP at EC50; read-out: 4) hP2X2/3 IC50 [nM] (1321N1)

{"columns": ["Compound", "Inequality Sign", "IC50, nM"],
 "data": [
  ["CC(C)N1Cc2c(n(CC(=O)Nc3ccc(F)cn3)c3cc(N4CCOCC4)nn3c2=O)C1=O [Example 180]", ">", 32000],
  ["COC[C@H](C)N1Cc2c(n(CC(=O)Nc3ccc(F)cn3)c3cc(-c4ncccc4C)nn3c2=O)C1=O [Example 164]", "=", 3700],
  ["CC(C)N1Cc2c(n(CC(=O)Nc3ccc(F)cn3)c3cc(C4=CCN(C(=O)OC(C)(C)C)C4)nn3c2=O)C1=O [Example 142]", "=", 1140],
  ["CC(C)N1Cc2c(n(CC(=O)Nc3ccc(F)cn3)c3cc(C(F)(F)F)nn3c2=O)C1=O [Example 31]", ">", 32000],
  ["CCc1cc2n(CC(=O)Nc3ccc(F)cn3)c3c(c(=O)n2n1)CN(C[C@H]1CN(CCC(F)(F)F)CCO1)C3=O [Example 259]", "=", 1170],
  ["CCNc1cc2n(CC(=O)Nc3ccc(F)cn3)c3c(c(=O)n2n1)CN(C(C)C)C3=O [Example 173]", "=", 8900],
  ["CCc1cc2n(CC(=O)Nc3ccc(F)cn3)c3c(c(=O)n2n1)CN(C1CCNC1)C3=O.Cl (racemic) [Example 236]", ">", 32000]
]}
